assay: yeast display, Sf9 membrane polyspecificity reagent, FACS + sequencing; frameworks hold sequencing errors
MEASURED_PARAMETER: polyreactivity (PSR sort gate)

[
  {
    "QUERY_SEQUENCE": "QVQLVESAGGLVQAGGSLRLSSGASGSTFNTYAMGWYRQAPGKERELVAAITYNGGSTYYADSVKGRFTISRDNAKNTVYLQMNSLKPEDTAVYYCAAPRSRSRTSRFEYWGQGTQVTVSS",
    "MEASURED_PARAMETER": "polyreactivity (PSR sort gate)",
    "ASSAY_VALUE": "high polyreactivity"
  },
  {
    "QUERY_SEQUENCE": "QVQLVESGGGFVQAGGSLRLSCPPSGRIIQAYAMAWYRQSPGKERELVAAISRSGGGTYYADSVKVRFTISRDNAKNTVYFLMNSLKPEDTAVSYCNAYYYYYTARWTQVNYWGQGTQVTVSS",
    "MEASURED_PARAMETER": "polyreactivity (PSR sort gate)",
    "ASSAY_VALUE": "high polyreactivity"
  },
  {
    "QUERY_SEQUENCE": "QVQLVESGGGLVQAGGSLRLSCAASGRTFDYYSMGWYRQAPGTERELVAAISSSGGRTYYADSVKGRFTISRDNAKNTVYLQMNSLKPEDTAVYYCNAVVSRNYEYWGQGTQVTVSS",
    "MEASURED_PARAMETER": "polyreactivity (PSR sort gate)",
    "ASSAY_VALUE": "high polyreactivity"
  },
  {
    "QUERY_SEQUENCE": "QVQLVESRGGLVQAGGSLRLSCAASGSTFNYYTMGWNRQAPGKERELVATITSGGTTYYADSVKGRFTISRDNAKNTVYLQMNSLKPEDTAVYYCAVQLRRHVDMDYWGQGTQVTVSS",
    "MEASURED_PARAMETER": "polyreactivity (PSR sort gate)",
    "ASSAY_VALUE": "high polyreactivity"
  },
  {
    "QUERY_SEQUENCE": "QVQLVESGGGLVQAGGSLRLSCAASGSTFAKYAMGWYRQAPGKERELVAAISSSGTSTYYADSVKGRFTISRDNAKNTVYLQMNSLKPEDTAVYYCAASYRNRYIAFYYWGQGTQVTVSS",
    "MEASURED_PARAMETER": "polyreactivity (PSR sort gate)",
    "ASSAY_VALUE": "low polyreactivity"
  },
  {
    "QUERY_SEQUENCE": "QVQLVESGGGLVQAGGSLRLSCAASGSIFPDYDMGWYRQAPGKERELVAAISSSGDSTYYADSVKGRFTISRDIAKNTVYLQMNSLKPEDTAVYYCAVDGTRSTSNGSEFTGYNYWGQGTQVTVSS",
    "MEASURED_PARAMETER": "polyreactivity (PSR sort gate)",
    "ASSAY_VALUE": "low polyreactivity"
  },
  {
    "QUERY_SEQUENCE": "QVQLVESGGGLVQAGGSLRLSCAASGSTSYVYAMGWYRQAPGKERELVAAISGSGGRTYYADSVKGRFTISRDNAKNTVYLQMNSLKPEDTAVYYCNALPRPSYPFDYWGQGTQVTVSS",
    "MEASURED_PARAMETER": "polyreactivity (PSR sort gate)",
    "ASSAY_VALUE": "high polyreactivity"
  },
  {
    "QUERY_SEQUENCE": "QVQLVESGGGLVQAGGSLRLSCAASGGTIVYYAMGWYREAPGKERELVAAINWSGGSTYYADSVKGRFTISRDKAKNTVYLQMNSLKPEDTAVLLLQRSGLRRSGVWFDYWGQGTQVTVSS",
    "MEASURED_PARAMETER": "polyreactivity (PSR sort gate)",
    "ASSAY_VALUE": "low polyreactivity"
  },
  {
    "QUERY_SEQUENCE": "QVQLLESGGGLVQAGGSLRLCCASSGYIFWGANMGWYRQAPGKEREFVAAIGHGTVTCYADSVKGRFTISRDNAKNTVYLQMNSLKPEDTAVYNCAAYSDVRKPHRYWGQGTQVTVVS",
    "MEASURED_PARAMETER": "polyreactivity (PSR sort gate)",
    "ASSAY_VALUE": "high polyreactivity"
  },
  {
    "QUERY_SEQUENCE": "QVQLVESGGGLVQAGGSLRLSCSASGLIFSSYAMGWYRPAPGKERELVAAISRGGSTNYADSVKGRFTISRDNAKNTVYLQMNSLKPEDTAVYYCNDYSWVNRYDYWGQGTQVTVSA",
    "MEASURED_PARAMETER": "polyreactivity (PSR sort gate)",
    "ASSAY_VALUE": "high polyreactivity"
  },
  {
    "QUERY_SEQUENCE": "QVQLVESGGGLVQAGGSLSLSCAASGLIFYYYAMGWYRQAPGKERELVAAITRGGRTYYADSVKGRFTISRDNAKNTVYLQMNSLKPEDTAVYYCAAVTRVYGKTMGYWGQGTQVTVSS",
    "MEASURED_PARAMETER": "polyreactivity (PSR sort gate)",
    "ASSAY_VALUE": "high polyreactivity"
  },
  {
    "QUERY_SEQUENCE": "QVQHVESGGGLVQAGGSLRLSCAASGSIFYIYAMGWYRQAPGKERELVAAISGSGSTYYADSVKGRFTISRDNAKNTVYLQMNSLKPEDTAVYDCAVELWRFWGAYTYTYDYWGQGTLVTVSS",
    "MEASURED_PARAMETER": "polyreactivity (PSR sort gate)",
    "ASSAY_VALUE": "high polyreactivity"
  },
  {
    "QUERY_SEQUENCE": "QVQLVESGGGLVQAGGSLRLSCAASGRIFDINAMGWYIQAPGKERELVAAINYNGSSTYYADSVKGRFTISRDNAKNTVYLQKNSLKPEDTAVYYCATVQVDVYTYDYWGQGTKVTVSS",
    "MEASURED_PARAMETER": "polyreactivity (PSR sort gate)",
    "ASSAY_VALUE": "high polyreactivity"
  },
  {
    "QUERY_SEQUENCE": "QVQLVESGGGLVQAGGSLRLSCAASGSTFLANAMGWYRQAPGKERELVATISSGGSTNYADSVKGRFTISRDNAKNTVYLQMNSLKPEDTAVYYCAAEYWYAWQEYGYWGQGTQVTVSS",
    "MEASURED_PARAMETER": "polyreactivity (PSR sort gate)",
    "ASSAY_VALUE": "low polyreactivity"
  },
  {
    "QUERY_SEQUENCE": "QVQLVESGGGLVQAGGSLRLSCAASGRTFYYYTMGWYRPAPGKERELVAAISSTGNTYYADSVKGRFTISRDNAKNTVYLQMNSLKPEDTAVYYCAALRYVNLLAQAYEYWGQGTQVTVSS",
    "MEASURED_PARAMETER": "polyreactivity (PSR sort gate)",
    "ASSAY_VALUE": "high polyreactivity"
  },
  {
    "QUERY_SEQUENCE": "QVQLVESGGGLVQAGGSLRLSCAASGRTFGGNAMGWNRHAPGKERELVAGINISGGSTNYADSVKGRYTISRDNAKNTVYLQMNSLKPEDSAVYYCNADTAVYAWDDDYWGQGTQVTVSS",
    "MEASURED_PARAMETER": "polyreactivity (PSR sort gate)",
    "ASSAY_VALUE": "low polyreactivity"
  },
  {
    "QUERY_SEQUENCE": "QVQLVESGGRLVQAGGSLRLTCAASGSTFSRYAMGWSRQAPGKERELVAAITGSGGNTYYADSVKGRFTISRDNAKNTVYLQMNSLKPEDTAVYYCAAEDYVGWYNFEYWGQGTQVTVSS",
    "MEASURED_PARAMETER": "polyreactivity (PSR sort gate)",
    "ASSAY_VALUE": "high polyreactivity"
  },
  {
    "QUERY_SEQUENCE": "QVQLVESGGGLVQAGGSLRLSCAASGRTLPYNAMGWYRQAPGKERELVAAISKRGSSTYYADSVKGRFTISRDNAKNTVYLQMNSLKPEDTAVYYCAKGGSFYYWGQGTQVTVSS",
    "MEASURED_PARAMETER": "polyreactivity (PSR sort gate)",
    "ASSAY_VALUE": "high polyreactivity"
  },
  {
    "QUERY_SEQUENCE": "QVQLVESGGGLVQAGGSLRVSCAASGGTFGNNDMGWYRQAPGKEWELFAAIRAAGTTYYADSVKGRFTISRDNAKNTVYLQMNSLKPEDTAVYYCIADTTGYWSYGFQYYGEDYWGQGTQVTVSS",
    "MEASURED_PARAMETER": "polyreactivity (PSR sort gate)",
    "ASSAY_VALUE": "low polyreactivity"
  },
  {
    "QUERY_SEQUENCE": "QVQLVESGGGLVQAGGSLRLSCAASGRTFTLYAMGWYRQAPGKERELVAAIRWSGSSTYYADSVKGRFTISRDNAKNTVYLQMNSLKPEDTAVYYCAADRAYRRFSQGAYSPWILKYGYWGQGTQVTVSS",
    "MEASURED_PARAMETER": "polyreactivity (PSR sort gate)",
    "ASSAY_VALUE": "high polyreactivity"
  },
  {
    "QUERY_SEQUENCE": "QVQLVESGGGLVQAGGSLRLSCAASGRTFYRNAMGWYRQAPGKERELVAAISNGGSTNYADSVKGRFTISRDNAKNTVYLQMNSLKPEDTAVYYCAKAVIRWRGSGQHGYFWYDYLGQGTQVTVSS",
    "MEASURED_PARAMETER": "polyreactivity (PSR sort gate)",
    "ASSAY_VALUE": "high polyreactivity"
  }
]

These entries and their values trace back to the nanobody polyreactivity screen of Harvey et al. (2022).
